Reference source: patent US4892875A

- Tested on: spontaneously hypertensive rats
- method-summary: Antihypertensive action (systolic blood pressure, caudal artery) in male spontaneously hypertensive rats
- Type: in vivo, rat
- study-conditions: 10 mg/kg oral; 1 hr.; after minus before medication; * P < 0.05 vs control
So basically every entry gets a class from its Change in blood pressure 1 hr. after treatment, ranges being c1: < -60 mmHg; c2: ≥ -60 mmHg and < -40 mmHg; c3: ≥ -40 mmHg

1. COC(=O)C1=C(C)NC(C)=C(C(=O)OCCN2CCN(C(c3ccc(OC)cc3)c3ccc(OC)cc3)CC2)C1c1cccc([N+](=O)[O-])c1 (stereo not shown)    c1
2. COC(=O)C1=C(C)NC(C)=C(C(=O)OCCN2CCN(C(c3ccc(C)cc3)c3ccc(C)cc3)CC2)C1c1cccc([N+](=O)[O-])c1 (stereo not shown)    c1
3. COC(=O)C1=C(C)NC(C)=C(C(=O)OCCN2CCN(c3cccc(Cl)c3)CC2)C1c1cccc(Cl)c1Cl (stereo not shown)    c2
4. COC(=O)C1=C(C)NC(C)=C(C(=O)OCCN2CCCN(C(c3ccccc3)c3ccccc3)CC2)C1c1cccc([N+](=O)[O-])c1 (stereo not shown)    c3
5. COC(=O)C1=C(C)NC(C)=C(C(=O)OCCN2CCN(c3ccc(Cl)cc3)CC2)C1c1cccc([N+](=O)[O-])c1 (stereo not shown)    c2
6. COC(=O)C1=C(C)NC(C)=C(C(=O)OCCN2CCN(c3cccc(C(F)(F)F)c3)CC2)C1c1cccc([N+](=O)[O-])c1 (stereo not shown)    c1
7. COC(=O)C1=C(C)NC(C)=C(C(=O)OCCN2CCN(C(c3ccc(F)cc3)c3ccc(F)cc3)CC2)C1c1cccc([N+](=O)[O-])c1 (stereo not shown)    c1
8. COC(=O)C1=C(C)NC(C)=C(C(=O)OCCN2CCN(C(c3ccccc3)c3ccccc3)CC2)C1c1cccc(Cl)c1Cl (stereo not shown)    c3
9. COC(=O)C1=C(C)NC(C)=C(C(=O)OC)C1c1ccccc1[N+](=O)[O-] [Nifedipine, reference compound]    c2
10. CCOC(=O)C1=C(C)NC(C)=C(C(=O)OCCN2CCN(C(c3ccc(C)cc3)c3ccc(C)cc3)CC2)C1c1cccc(Cl)c1Cl (stereo not shown)    c2
11. COC(=O)C1=C(C)NC(C)=C(C(=O)OCCN2CCN(c3ccc(F)cc3)CC2)C1c1cccc(Cl)c1Cl (stereo not shown)    c2
12. COC(=O)C1=C(C)NC(C)=C(C(=O)OCCN2CCN(C(c3ccc(F)cc3)c3ccc(F)cc3)CC2)C1c1cccc(Cl)c1Cl (stereo not shown)    c3

###

- Test system: spontaneously hypertensive rats
- method-summary: Antihypertensive action (systolic blood pressure, caudal artery) in male spontaneously hypertensive rats
- Assay type: in vivo, rat
- study-conditions: 10 mg/kg oral; 1 hr.; after minus before medication; * P < 0.05 vs control
- Description: Male spontaneously hypertensive rats aged 10 to 11 weeks were used (in groups of 3 to 6 individuals). […] Each test compound was suspended in a 5% solution of gum arabic and orally administered. The dosage was 10 mg/kg for all compounds. Animals in a control group was given the above solution of gum arabic only.
Assign class by Change in blood pressure 1 hr. after treatment: not lower than -60 mmHg means fulfilled; lower than -60 mmHg means not fulfilled.

1) CCOC(=O)C1=C(C)NC(C)=C(C(=O)OCCN2CCN(C(c3ccc(C)cc3)c3ccc(C)cc3)CC2)C1c1cccc([N+](=O)[O-])c1 (centres unmarked)    not fulfilled
2) COCCOC(=O)C1=C(C)NC(C)=C(C(=O)OCCN2CCN(C(c3ccccc3)c3ccccc3)CC2)C1c1cccc([N+](=O)[O-])c1 (centres unmarked)    fulfilled
3) COC(=O)C1=C(C)NC(C)=C(C(=O)OCCN2CCN(c3ccc(F)cc3)CC2)C1c1cccc([N+](=O)[O-])c1.Cl (centres unmarked)    fulfilled
4) COC(=O)C1=C(C)NC(C)=C(C(=O)OCCN2CCN(c3cccc(Cl)c3Cl)CC2)C1c1cccc([N+](=O)[O-])c1 (centres unmarked)    fulfilled

###

- Tested on: spontaneously hypertensive rats
- method-summary: Renal blood flow increasing effect (renal circulation improving effect) in anesthetized male spontaneously hypertensive rats
- Assay type: in vivo
- study-conditions: Rattus norvegicus, 20 min; 0.01 mg/kg intravenous; 20 minutes; * P < 0.05 vs control; read-out: Change in renal blood flow, 20 Minutes after medication
Structures can show the parent of a compound that is named as a salt.
Documented change in vivo at 0.01 mg/kg across a set of compounds
reported-property: change in vivo at 0.01 mg/kg (%)

1) CCOC(=O)C1=C(C)NC(C)=C(C(=O)OCCN2CCN(C(c3ccc(C)cc3)c3ccc(C)cc3)CC2)C1c1cccc([N+](=O)[O-])c1 (stereo not drawn) [Example 31]    4.3
2) COC(=O)C1=C(C)NC(C)=C(C(=O)OCCN2CCN(C(c3ccccc3)c3ccccc3)CC2)C1c1cccc([N+](=O)[O-])c1.Cl.Cl (stereo not drawn) [Example 1, dihydrochloride]    13.4
3) COC(=O)C1=C(C)NC(C)=C(C(=O)OCCN(C)Cc2ccccc2)C1c1cccc([N+](=O)[O-])c1 (stereo not drawn) [Nicardipine.HCl, reference compound]    -1.9
4) COC(=O)C1=C(C)NC(C)=C(C(=O)OCCCN2CCN(C(c3ccccc3)c3ccccc3)CC2)C1c1cccc([N+](=O)[O-])c1 (stereo not drawn) [Example 37]    10.8
5) COC(=O)C1=C(C)NC(C)=C(C(=O)OCCN2CCN(C(c3ccc(OC)cc3)c3ccc(OC)cc3)CC2)C1c1cccc([N+](=O)[O-])c1 (stereo not drawn) [Example 10]    8.3
6) COC(=O)C1=C(C)NC(C)=C(C(=O)OCCN2CCN(C(c3ccccc3)c3ccccc3)CC2)C1c1cccc(Cl)c1 (stereo not drawn) [Example 22]    7.8
